Each entry below carries its recorded kd.
target: htau40 (Homo sapiens, UniProt P10636); experiment: Biacore X100 SPR of anti-tau mAbs on immobilised htau40; format: binding; details: newly converted mAbs, Table 25 (Example 28), hT40
Sequence (P10636 1-441 isoform P10636-8): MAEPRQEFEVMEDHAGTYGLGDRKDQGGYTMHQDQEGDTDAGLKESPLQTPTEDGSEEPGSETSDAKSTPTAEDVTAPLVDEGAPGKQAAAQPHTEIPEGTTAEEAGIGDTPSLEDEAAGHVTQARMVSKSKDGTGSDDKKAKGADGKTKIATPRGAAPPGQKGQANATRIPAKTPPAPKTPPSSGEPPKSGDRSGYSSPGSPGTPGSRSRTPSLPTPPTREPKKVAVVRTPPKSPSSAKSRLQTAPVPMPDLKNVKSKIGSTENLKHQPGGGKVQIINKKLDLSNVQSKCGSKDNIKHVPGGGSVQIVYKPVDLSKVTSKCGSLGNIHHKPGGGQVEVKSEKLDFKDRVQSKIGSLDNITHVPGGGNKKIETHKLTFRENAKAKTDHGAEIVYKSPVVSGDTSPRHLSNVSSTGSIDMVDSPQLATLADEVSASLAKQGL
Could you kindly put the unit after your number?

Molecule	Measure	Assay value
3aH6: anti-tau clone, SEQ ID NO: 423 (protein, 3aH6 amino acid sequence) scFv: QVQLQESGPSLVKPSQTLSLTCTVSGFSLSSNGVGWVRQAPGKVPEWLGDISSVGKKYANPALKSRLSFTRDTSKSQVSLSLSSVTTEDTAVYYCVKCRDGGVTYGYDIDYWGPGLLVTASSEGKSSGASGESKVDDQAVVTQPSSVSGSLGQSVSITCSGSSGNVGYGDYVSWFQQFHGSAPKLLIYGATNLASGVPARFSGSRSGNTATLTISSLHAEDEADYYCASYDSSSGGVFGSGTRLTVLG	kd	0.0001522 s⁻¹
CE2: anti-tau clone referred to as CE2 or E1B8, SEQ ID NO: 366 (protein, CE2/E1B8 amino acid sequence) scFv: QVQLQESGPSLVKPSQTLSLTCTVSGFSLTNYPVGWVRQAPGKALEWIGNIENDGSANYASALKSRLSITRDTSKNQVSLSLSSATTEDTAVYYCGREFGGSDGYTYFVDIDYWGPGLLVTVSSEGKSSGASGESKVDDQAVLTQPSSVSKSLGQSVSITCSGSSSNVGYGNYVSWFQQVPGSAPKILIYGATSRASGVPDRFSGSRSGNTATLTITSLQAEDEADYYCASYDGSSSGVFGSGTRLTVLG	kd	0.001367 s⁻¹

Here's the next entry for you.
Bench note: what kd did 3bG4: anti-tau clone, SEQ ID NO: 425 (protein, 3bG4 amino acid sequence) scFv: QVQLQESGPSLVKPSQTLSLTCTISGFSLISNGVGWVRQAPGKVPEWVGDIASSGKAYSNPALKSRLSITRDTSKSQVSLSLRSVTTEDTAVYYCVRCRDGGVTYGYDIDYWGPGLLVTVSSEGKSSGASGESKVDDQAVLTQPSSVSKSLGQSVSITCSGSTSNVGSGNDVSWFQQVPGSAPKLLFYGATNRASGVPDRFSGSRSGNTATLTITSLQAEDEADYYCGSYDSNSGGIFGSGTRLTVLG show?
0.0002964 s⁻¹
